test_system: hBTK (full-length BTK, 6HIS-tag cleaved) (Homo sapiens (Human))
Sequence (Q06187 whole entry): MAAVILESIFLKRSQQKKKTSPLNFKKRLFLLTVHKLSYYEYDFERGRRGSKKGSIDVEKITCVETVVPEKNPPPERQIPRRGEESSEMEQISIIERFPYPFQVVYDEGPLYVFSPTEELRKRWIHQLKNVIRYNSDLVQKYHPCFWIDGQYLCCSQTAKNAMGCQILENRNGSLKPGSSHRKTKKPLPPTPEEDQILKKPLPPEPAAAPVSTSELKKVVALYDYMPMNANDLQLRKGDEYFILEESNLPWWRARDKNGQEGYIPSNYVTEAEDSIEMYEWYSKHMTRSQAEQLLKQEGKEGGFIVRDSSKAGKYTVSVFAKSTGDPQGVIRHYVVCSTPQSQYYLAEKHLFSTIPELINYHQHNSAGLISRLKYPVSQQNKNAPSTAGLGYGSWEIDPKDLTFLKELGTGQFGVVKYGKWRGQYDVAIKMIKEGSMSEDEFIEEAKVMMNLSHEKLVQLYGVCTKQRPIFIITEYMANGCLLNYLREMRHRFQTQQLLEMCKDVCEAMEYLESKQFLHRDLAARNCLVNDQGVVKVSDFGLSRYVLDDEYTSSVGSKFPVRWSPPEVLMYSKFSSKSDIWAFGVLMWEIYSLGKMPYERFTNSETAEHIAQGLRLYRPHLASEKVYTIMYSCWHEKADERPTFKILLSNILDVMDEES
assay_name: BTK enzymatic activity, IMAP-FP assay (Assay Method B)
Assay type: biochemical
applied_conditions: IMAP-FP, 1.05 nM hBTK, 5 μM ATP; class 100-1000 is given as ≧100 nM-<1 μM; read-out: IC50 Btk activity values - Assay Method B
pIC50: −log10 of the molar value.
measured_attribute: pIC50

> print(dat)
                                    compound  value.reported
 1  Cc1ccnc(NC(=O)c2ccc(-c3nc([C@@H]4CC[C@H](C)N(C(=O)C5(C)COC5)C4)n4ccnc(N)c34)cc2)c1          > 8.00
 2  CN1CCO[C@@H](c2nc(-c3ccc(C(=O)Nc4cc(C(F)(F)F)ccn4)cc3)c3c(N)nccn23)C1    7.00 to 8.00
 3  Cn1cc(CN2CCN[C@@H](c3nc(-c4ccc(C(=O)Nc5cc(C(F)(F)F)ccn5)cc4)c4c(N)nccn34)C2)cn1    6.00 to 7.00
 4  Nc1nccn2c([C@H]3CN(C(=O)C4(N)CCC4)CCO3)nc(-c3ccc(C(=O)Nc4cc(C(F)(F)F)ccn4)cc3)c12    7.00 to 8.00
 5  CC1(C(=O)N2CCC[C@@H](n3cc(-c4ccc(C(=O)Nc5cc(C(F)(F)F)ccn5)cc4)c4c(N)ncnc43)C2)COC1          > 8.00
 6  Cn1cc(CN2CCS(=O)(=O)C(c3nc(-c4ccc(C(=O)Nc5cc(C(F)(F)F)ccn5)cc4)c4c(N)nccn34)C2)cn1 (stereo not shown)    6.00 to 7.00
 7  Cc1cc(-c2nc([C@@H]3CCCN(C(=O)C4(C)COC4)C3)n3ccnc(N)c23)ccc1C(=O)Nc1cc(C(F)(F)F)ccn1    7.00 to 8.00
 8  CCN1C[C@@H](c2nc(-c3ccc(C(=O)Nc4cc(C(F)(F)F)ccn4)cc3)c3c(N)nccn23)CC[C@@H]1C(F)(F)F    7.00 to 8.00
 9  C[C@@H]1C[C@@H](c2nc(-c3ccc(C(=O)Nc4cc(C(F)(F)F)ccn4)cc3)c3c(N)nccn23)CN(C(=O)C2(C)COC2)C1    7.00 to 8.00
10  C[C@@H]1[C@H](c2nc(-c3ccc(C(=O)Nc4cc(C(F)(F)F)ccn4)cc3)c3c(N)nccn23)CCCN1C(=O)C1(C)COC1          > 8.00
11  C[C@@H]1CC[C@@H](c2nc(-c3ccc(C(=O)Nc4cc(C(F)(F)F)ccn4)cc3)c3c(N)nccn23)CN1C(=O)C1(C)COC1    6.00 to 7.00
12  CN1CCN(C)[C@@H](c2nc(-c3ccc(C(=O)Nc4cc(C(F)(F)F)ccn4)cc3)c3c(N)nccn23)C1    6.00 to 7.00
13  Cc1cc(C(=O)Nc2cc(C(F)(F)F)ccn2)ccc1-c1nc([C@@H]2CCCN(C(=O)C3(C)COC3)C2)n2ccnc(N)c12    7.00 to 8.00

* * *

// reported EC50 per item
test_system: Btk enzyme (His-Btk) (Homo sapiens (Human), UniProt Q06187)
Sequence (Q06187 whole entry): as above
assay_name: Btk enzyme activity, IMAP fluorescence polarization assay (Assay Method A)
Counter-ions that a name gives are not always drawn.
measured_attribute: EC50

compound	value_reported
Cc1nc(-c2ccc(C(=O)Nc3cc(C(F)(F)F)ccn3)cc2)c2c(N)ncc(C(=O)N(C)C)n12	≥ 1 µM
N#Cc1ccnc(NC(=O)c2ccc(-c3nc(C4CCOCC4)n4ccnc(N)c34)cc2)c1	0.01 to 0.1 µM
Nc1nccn2c(C3CCc4[nH]nc(C5CC5)c4C3)nc(-c3ccc(C(=O)Nc4cc(C(F)(F)F)ccn4)cc3)c12 (stereo not shown)	< 0.01 µM
CCN(CC)c1nc(-c2ccc(C(=O)Nc3ccccn3)cc2)c2c(N)nccn12	0.1 to 1 µM
CC1(C(=O)N2CCC[C@@H](c3nc(-c4ccc(C(=O)Nc5cc(C(F)(F)F)ccn5)cc4)c4c(N)ncnn34)C2)CCC1	< 0.01 µM
Nc1nccn2c([C@@H]3CCN(C(=O)C4CCOC4)C3)nc(-c3ccc(C(=O)Nc4ccccn4)cc3)c12 (stereo partly shown) [Example 128, TFA salt]	0.1 to 1 µM
Nc1nccn2c1c(-c1ccc(C(=O)Nc3ccccn3)c3ccccc13)nc2[C@H]1CC[C@H](O)CC1	0.1 to 1 µM
COCCC(=O)N1CCC[C@@H](c2nc(-c3ccc(C(=O)Nc4ccccn4)c(C)c3)c3c(N)nccn23)C1 [Example 286, TFA salt]	0.01 to 0.1 µM
COCCC(=O)N1CCC[C@@H](c2nc(-c3ccc(C(=O)Nc4cc(C#N)ccn4)cc3)c3c(N)nccn23)C1	< 0.01 µM
Nc1nccn2c([C@@H]3CCCN(CC4CC4)C3)nc(-c3ccc(C(=O)Nc4cc(C(F)(F)F)ccn4)cc3)c12 [Example 140, TFA salt]	0.01 to 0.1 µM
Nc1nccn2c1c(-c1ccc(C(=O)Nc3nc4c(s3)COCC4)cc1)nc2[C@H]1CC[C@H](O)CC1	0.01 to 0.1 µM
CC(C)(C)C(=O)N1CCC[C@@H](c2nc(-c3ccc(C(=O)Nc4cc(C(F)(F)F)ccn4)cc3)c3c(N)nccn23)C1	< 0.01 µM
Nc1nccn2c([C@@H]3CCCN(C(=O)[C@H]4CC(=O)N4)C3)nc(-c3ccc(C(=O)Nc4cc(C(F)(F)F)ccn4)cc3)c12	< 0.01 µM
CC1CC1C(=O)N1CCC[C@@H](c2nc(-c3ccc(C(=O)Nc4cc(C5CC5)ccn4)cc3)c3c(N)nccn23)C1 (stereo partly shown)	< 0.01 µM
Nc1nccn2c(N3CCC3)nc(-c3ccc(C(=O)Nc4cc(C(F)(F)F)ccn4)cc3)c12	0.01 to 0.1 µM
CCC(F)(F)C(=O)N1CCC[C@@H](c2nc(-c3ccc(C(=O)Nc4ccccn4)cc3)c3c(N)nccn23)C1	0.01 to 0.1 µM
CCN(CC)c1nc(-c2ccc(C(=O)Nc3cc(C(F)(F)F)ccn3)cc2)c2c(N)nccn12	0.01 to 0.1 µM
CC(C)C(=O)N1CCC2(CC1)CC2c1nc(-c2ccc(C(=O)Nc3ccccn3)cc2)c2c(N)nccn12 (stereo not shown)	0.1 to 1 µM
Nc1nccn2c([C@@H]3CCCN(C(=O)C45CC(C4)C5)C3)nc(-c3ccc(C(=O)Nc4cc(C(F)(F)F)ccn4)cc3)c12	< 0.01 µM
CCCc1ccnc(NC(=O)c2ccc(-c3nc(C4CCOCC4)n4ccnc(N)c34)cc2)c1	< 0.01 µM
COCCC(=O)N1CC[C@@H](c2nc(-c3ccc(C(=O)Nc4ccccn4)cc3)c3c(N)nccn23)C1 [Example 125, TFA salt]	0.1 to 1 µM
CCOC(=O)C1CC1CN1CCC[C@@H](c2nc(-c3ccc(C(=O)Nc4ccccn4)cc3)c3c(N)nccn23)C1 (stereo partly shown) [Example 137, TFA salt]	0.1 to 1 µM
C[C@@H]1CC[C@@H](c2nc(-c3ccc(C(=O)Nc4cc(C(F)(F)F)ccn4)cc3)c3c(N)nccn23)CN1C(=O)C1CC1 (relative stereo) [Example 188, TFA salt]	0.01 to 0.1 µM
Nc1nccn2c(C3CCOCC3)nc(-c3ccc(C(=O)Nc4nccs4)cc3)c12	0.1 to 1 µM
COCc1n[nH]c2c1CC(c1nc(-c3ccc(C(=O)Nc4cc(C(F)(F)F)ccn4)cc3)c3c(N)nccn13)CC2 (stereo not shown)	0.01 to 0.1 µM
CS(=O)(=O)N1CCC[C@@H](c2nc(-c3ccc(C(=O)Nc4ccccn4)cc3)c3c(N)nccn23)C1	0.1 to 1 µM
CCN(CC)c1nc(-c2ccc(C(=O)Nc3cc(C#N)ccn3)cc2)c2c(N)nccn12	0.01 to 0.1 µM
NCCOCCOCCOCCOCCC(=O)N1CCC[C@@H](c2nc(-c3ccc(C(=O)Nc4cc(C(F)(F)F)ccn4)cc3)c3c(N)nccn23)C1	< 0.01 µM
